# Test Description: Free concentration and protein binding in spiked human serum samples (Table S5)
# Condition Set: human, serum, PB, S5b, serum of patient 18 (critically ill) spiked 50 mg/L, measured c 57.6 mg/L; calibration with human serum

Structure As Smiles	fraction unbound
CN[C@H]1C(=O)N[C@@H]2Cc3ccc(cc3)Oc3cc4cc(c3O[C@@H]3O[C@H](C(=O)O)[C@@H](O)[C@H](O)[C@H]3NC(=O)CCCCCCCCC(C)C)Oc3ccc(cc3Cl)[C@@H](O)[C@@H]3NC(=O)[C@H](NC(=O)[C@@H]4NC(=O)[C@@H](NC2=O)c2cc(cc(O)c2Cl)Oc2cc1ccc2O)c1ccc(O)c(c1)-c1c(O[C@H]2O[C@H](CO)[C@@H](O)[C@H](O)[C@@H]2O)cc(O)cc1[C@@H](C(=O)NCCCN(C)C)NC3=O	0.03
